System: SH-SY5Y
assay-text: Cytotoxicity against human SH-SY5Y cells incubated for 72 hrs by MTT assay
Assay type: functional, cell-based
measurement-name: pIC50
Worth noting: pIC50 values are minus log10 of concentrations stated in mol/L.

The reported pIC50 of the compound CCC/C=C/C=C/C(=O)O[C@@H]1C[C@H]2[C@@H](CCCC[C@H](O)CCC)CCC[C@H]2N[C@H]1C was 5.24

The reported pIC50 of the compound CCCCC/C=C/C(=O)O[C@@H]1C[C@H]2[C@@H](CCCC[C@H](O)CCC)CCC[C@H]2N[C@H]1C was 5.21

###

Test system: A549
assay-text: Cytotoxicity against human A549 cells incubated for 72 hrs by MTT assay
Type: functional, cell-based
experimental-conditions: A549, 72 h
Would you mind telling me the reported pIC50 of each entry?
Worth noting: pIC50 values are minus log10 of concentrations stated in mol/L.

The reported pIC50 of the compound CCCCC/C=C/C(=O)O[C@@H]1C[C@H]2[C@@H](CCCC[C@H](O)CCC)CCC[C@H]2N[C@H]1C was 5.23

The reported pIC50 of the compound CCC/C=C/C=C/C(=O)O[C@@H]1C[C@H]2[C@@H](CCCC[C@H](O)CCC)CCC[C@H]2N[C@H]1C was 5.33

###

Would you mind telling me the reported IC50 of each entry?
Tested on: SMMC-7721
assay-text: Cytotoxicity against human SMMC-7721 cells incubated for 72 hrs by MTT assay
Assay type: functional, cell-based
experimental-conditions: SMMC-7721, 72 h
Your answer is read as µM, so omit the unit and give the number.

The reported IC50 of the molecule CCC/C=C/C=C/C(=O)O[C@@H]1C[C@H]2[C@@H](CCCC[C@H](O)CCC)CCC[C@H]2N[C@H]1C was 4.09

The reported IC50 of the molecule CCCCC/C=C/C(=O)O[C@@H]1C[C@H]2[C@@H](CCCC[C@H](O)CCC)CCC[C@H]2N[C@H]1C was 3.93

###

Test system: L02
assay-text: Cytotoxicity against human L02 cells incubated for 72 hrs by MTT assay
Assay type: functional, cell-based
experimental-conditions: L02, 72 h
measurement-name: pIC50
Worth noting: pIC50 values are minus log10 of concentrations stated in mol/L.

The reported pIC50 of the compound CCCCC/C=C/C(=O)O[C@@H]1C[C@H]2[C@@H](CCCC[C@H](O)CCC)CCC[C@H]2N[C@H]1C was 4.73

The reported pIC50 of the compound CCC/C=C/C=C/C(=O)O[C@@H]1C[C@H]2[C@@H](CCCC[C@H](O)CCC)CCC[C@H]2N[C@H]1C was 4.90
